# System: U2OS
# assay text: Multiplex assay against U2OS
# Assay type: toxicity, cell-based
# test conditions: human, 12 h, 10 µM, compound concentration 10 uM, replicate 2
We begin with a simple list: items and their reported Population Hoechst High Intensity Objects (%).
property: Population Hoechst High Intensity Objects (%)

molecule: CCOC(=O)c1c(C)[nH]c2ccc3c(c12)CN1CCc2cc(OC)ccc2C1O3 (stereo not drawn)
measurement unit: %
measurement: 11
//
molecule: COc1cc(N2CCN(C)CC2)ccc1Nc1ncc2c(n1)N(C)c1ccccc1C(=O)N2C
measurement unit: %
measurement: 5
//
molecule: C=CCn1c(=O)c2cnc(Nc3ccc(N4CCN(C)CC4)cc3)nc2n1-c1cccc(C(C)(C)O)n1
measurement unit: %
measurement: 28
//
molecule: COCC(=O)NC/C=C/c1ccc2ncnc(Nc3ccc(Oc4ccc(C)nc4)c(C)c3)c2c1
measurement unit: %
measurement: 11
//
molecule: COc1ccc(-c2ccc3c(N4CCOCC4)nc(N4C[C@@H](C)O[C@@H](C)C4)nc3n2)cc1CO
measurement unit: %
measurement: 37
//
molecule: O=C1NC(=O)C(c2cnc3ccccn23)=C1c1cn2c3c(cc(F)cc13)CN(C(=O)N1CCCCC1)CC2
measurement unit: %
measurement: 10
//
molecule: NC(=O)c1cccc(-c2cc(Nc3ccc(OC(F)(F)F)cc3)ncn2)c1
measurement unit: %
measurement: 9
//
molecule: CCc1cccc(CC)c1NC(=O)c1nn(C)c2c1CCc1cnc(Nc3ccc(N4CCN(C)CC4)cc3OC)nc1-2
measurement unit: %
measurement: 18
